- System: Enterobacter cloacae 3MRGN (clinical bronchial aspirate isolate)
- Method summary: MIC 50, broth micro-dilution, clinical isolate
- Assay type: cell-based
- Experimental parameters: Enterobacter cloacae, E. Cloacae clinical isolate; read-out: MIC 50
// MIC50 lookup, one value per entry

>  <Compound>
N=C(NCCN)NC1C(O)[C@@H](CO)OC(OC2C(F)[C@H](O[C@H]3OC(CN)[C@@H](O)CC3N)C(N)C[C@H]2NC(=O)[C@@H](O)CCN)[C@@H]1O (stereo partly drawn)

>  <Reported property>
MIC50

>  <Result>
0.5 µM

$$$$

Query: Need MIC50, item C[C@@H](N)CCNC(=N)NC1[C@@H](O)C(OC2[C@@H](F)[C@H](O[C@H]3OC(CN)[C@@H](O)CC3N)C(N)C[C@H]2NC(=O)[C@@H](O)CCN)O[C@H](CO)[C@H]1O (stereo partly drawn) [ABX5047, Tobra-AHB-F-Gua (R) 3-amino-butyl]
Reply: 0.25 to 0.5 µM

Query: Need MIC50, item N=C(NCCCN)NC1[C@@H](O)C(OC2[C@@H](F)[C@H](O[C@H]3OC(CN)[C@@H](O)CC3N)C(N)C[C@H]2NC(=O)[C@@H](O)CCN)O[C@H](CO)[C@H]1O (stereo partly drawn)
Reply: 1 µM
